The reported numbers originate from patent US12144869B2.

Measured Target: T1, human ROR1-Fz (Homo sapiens, UniProt Q01973)
T1 construct: Frizzled (Fz, residues 165-305); His6 (C); purchased Acro Biosystems; host or cells: HEK293
T1 sequence (Q01973 165-305): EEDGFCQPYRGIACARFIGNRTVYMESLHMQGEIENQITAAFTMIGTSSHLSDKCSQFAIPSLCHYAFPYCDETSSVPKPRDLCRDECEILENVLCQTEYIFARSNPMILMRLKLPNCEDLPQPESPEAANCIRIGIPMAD
Assay Text: Biacore off-rate and kinetic analysis, ROR1-Fz
Type: binding
Experimental Context: Table 11; SP34 light chain
Each entry below lists one item and its recorded Biacore human ROR1-Fz kd value.
Mention the unit after the number when you answer.

The following molecules have reported results that may help.
Molecule | Result
SRP2196-A04 (antibody, V domains shown) VH: EVQLVESGGGLVQPGGSLRLSCAASGFNISPYYIHWVRQAPGKGLEWVGQIYPISGHTYQADSVKGRFTISADTSKNTAYLQMNSLRAEDTAVYYCARESRRYVGPFGYWGQGTLVTVSS VL: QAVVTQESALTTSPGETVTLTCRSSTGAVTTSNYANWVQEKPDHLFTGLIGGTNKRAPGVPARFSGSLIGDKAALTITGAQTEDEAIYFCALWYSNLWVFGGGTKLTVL | 0.000343 s⁻¹
SRP2196-A07 (antibody, V domains shown) VH: EVQLVESGGGLVQPGGSLRLSCAASGFNITGYYIHWVRQAPGKGLEWVGQISPNSGSTYYADSVKGRFTISADTSKNTAYLQMSSLRAEDTAVYYCARDSRRYVRGWDYWGQGTLVTVSS VL: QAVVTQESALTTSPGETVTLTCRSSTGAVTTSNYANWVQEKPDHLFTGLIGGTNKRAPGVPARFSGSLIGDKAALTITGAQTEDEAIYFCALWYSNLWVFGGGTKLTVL | 0.00064 s⁻¹

Tell me the measured Biacore human ROR1-Fz kd of SRP2196-A10 (antibody, V domains shown) VH: EVQLVESGGGLVQPGGSLRLSCAASGFNITGYYIHWVRQAPGKGLEWVGYISPNSGATHYADSVKGRFTISADISKNTAYLQMNSLRAEDTAVHYCARDSRRYVRSWDYWGQGTLVTVSS VL: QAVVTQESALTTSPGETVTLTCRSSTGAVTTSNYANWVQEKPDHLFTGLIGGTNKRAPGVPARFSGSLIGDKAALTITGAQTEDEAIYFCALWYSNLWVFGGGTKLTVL , please.
0.000479 s⁻¹
